Test: Inhibition of T3SS-mediated secretion of an ExoS-beta-lactamase fusion protein into the culture medium in Pseudomonas aerguinosa MDM973 assessed as inhibition of nitrocefin hydrolysis by secretion assay
Parameters: species or system Pseudomonas aeruginosa
OBSERVABLE: IC50 (µM)
Only the number, expressed in µM, is required.

# example entries with known answers
Problem: GET /values?readout=IC50&item= CC(Oc1ccc(Cl)cc1Cl)C(=O)NCc1ccc2sccc2c1 (stereo unspecified)
Solution: 6

Problem: Next: COc1ccccc1CNC(=O)C(C)Oc1ccc(Cl)cc1Cl (stereo unspecified)
Solution: 28

Okay, now this compound:
Problem: GET /values?readout=IC50&item= CC(Oc1ccc(Cl)cc1Cl)C(=O)N(C)Cc1ccc(F)cc1 (stereo unspecified)
Solution: 28.5

====

Test: Inhibition of T3SS-mediated secretion of an ExoS-beta-lactamase fusion protein into the culture medium in Pseudomonas aerguinosa MDM973 assessed as inhibition of nitrocefin hydrolysis by secretion assay
Set-up: species or system Pseudomonas aeruginosa
OBSERVABLE: IC50

# example entries with known answers
Problem: GET /values?readout=IC50&item= CC(Oc1ccc(Cl)cc1F)C(=O)NCc1ccc2c(c1)OCO2 (stereo not drawn)
Solution: > 100 µM

Problem: Next: CC(C)(Oc1ccc(Cl)cc1Cl)C(=O)NCc1ccc2c(c1)OCO2
Solution: > 100 µM

Okay, now this compound:
Problem: GET /values?readout=IC50&item= CC(Oc1ccc(Cl)cc1Cl)C(=O)Nc1ccc(F)cc1 (stereo not drawn)
Solution: > 100 µM

# credit: ChEMBL document CHEMBL3397026
